# system.name: FGFR2 (Homo sapiens, UniProt P21802)
# Sequence (P21802 399-821 limits assumed): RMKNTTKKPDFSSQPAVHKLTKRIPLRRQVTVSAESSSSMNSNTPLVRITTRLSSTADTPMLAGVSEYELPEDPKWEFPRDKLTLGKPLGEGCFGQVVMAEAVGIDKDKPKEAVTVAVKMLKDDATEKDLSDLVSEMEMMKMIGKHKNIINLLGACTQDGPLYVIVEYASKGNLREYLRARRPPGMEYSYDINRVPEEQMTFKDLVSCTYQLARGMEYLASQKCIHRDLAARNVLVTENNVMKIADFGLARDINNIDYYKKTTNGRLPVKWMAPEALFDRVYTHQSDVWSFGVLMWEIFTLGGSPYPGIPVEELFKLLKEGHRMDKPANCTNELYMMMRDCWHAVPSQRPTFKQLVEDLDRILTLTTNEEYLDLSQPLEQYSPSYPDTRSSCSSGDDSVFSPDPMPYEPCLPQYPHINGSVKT
# test.description: FGFR wild type enzyme assay (HTRF KinEASE-TK), FGFR2
# condition.set: Enz FGFR2 (nM), FGFR2 wild type enzyme assay
value.type: IC50 (nM)

Cc1c(-c2cc(Sc3ccc(F)cc3C#N)c3c(C#N)cnn3c2)cnn1[C@H]1CCCN(c2ncccn2)C1 | 5
CO[C@@H](C)C(=O)N1CCC(n2cc(-c3cc(Sc4ccccc4C#N)c4c(C#N)cnn4c3)cn2)CC1 | 0.5
CC(=O)N1CCC(n2nc(C)c(-c3cc(Sc4ncccc4F)c4c(C#N)cnn4c3)c2F)CC1 | 12
COC(=O)N1CCC[C@H](n2ncc(-c3cc(Sc4ccc(F)cc4C#N)c4c(C#N)cnn4c3)c2C)C1 | 2
CC(=O)N1CCC[C@H](n2cc(-c3cc(Sc4ccccc4C#N)c4c(C#N)cnn4c3)cn2)C1 | 0.4

1: C[C@]1(O)CC[C@@H](n2cc(-c3cc(Sc4ccc(F)cc4C#N)c4c(C#N)cnn4c3)cn2)CC1
2: N#Cc1cnn2cc(-c3cn([C@H]4CCCNC4)c4nccnc34)cc(Sc3ncccc3F)c12
3: Cc1c(-c2cc(Sc3ccc(F)cc3C#N)c3c(C#N)cnn3c2)cnn1C[C@@H](O)CO
4: Cc1c(-c2cc(Sc3ccc(F)cc3C#N)c3c(C#N)cnn3c2)cnn1C1CCN(C(=O)[C@H](C)O)CC1
5: CC(=O)N1CCC(n2cc(-c3cc(Sc4ccc(F)cc4C#N)c4c(C#N)cnn4c3)c(C)n2)CC1
Incoming: Output the entries ranked by IC50 from maximum down to minimum. Use the labels to give the ranking in the order requested.
Outgoing: 2, 3, 5, 4, 1
(2: 22 nM, 3: 7 nM, 5: 3 nM, 4: 2 nM, 1: 1 nM)

P: CC(=O)N1CCC[C@H](n2cc(-c3cc(Sc4nc(C)c(F)cc4F)c4c(C#N)cnn4c3)cn2)C1
Q: Cn1cc(-c2cc(Sc3ncccc3F)c3c(C#N)cnn3c2)cn1
R: Cc1c(-c2cc(Sc3ccccc3C#N)c3c(C#N)cnn3c2)cnn1C
Incoming: Would you mind ranking these molecules by ascending IC50? Use the labels to give the ranking in the order requested.
Outgoing: P, Q, R
(P: 1 nM, Q: 6 nM, R: 9 nM)

###

# system.name: UniProt P21802
# test.description: FGFR wild type enzyme assay (HTRF KinEASE-TK), FGFR2
# condition.set: Enz FGFR2 (nM), FGFR2 wild type enzyme assay
value.type: IC50 (nM)

A: N#Cc1ccccc1Sc1cc(-c2cnn(CC(=O)O)c2)cn2ncc(C#N)c12
B: N#Cc1cnn2cc(-c3ccc(N4C[C@@H](O)[C@@H](O)C4)nc3)cc(Sc3ncccc3F)c12
Incoming: Returns the identifier with the smallest measured IC50 among A and B . Bench note: the answer is the label of the chosen record.
Outgoing: B
(B: 2 nM, A: 4 nM)

A: Cc1nn([C@H]2CC[C@H](O)CC2)cc1-c1cc(Sc2ccc(F)cc2C#N)c2c(C#N)cnn2c1
B: N#Cc1cc(F)ccc1Sc1cc(-c2cnn([C@H]3CCCNC3)c2)cn2ncc(C#N)c12
Incoming: Kindly identify which of A and B has the larger recorded IC50 value. Bench note: the answer is the label of the chosen record.
Outgoing: A

###

# system.name: UniProt:P21802
# test.description: FGFR wild type enzyme assay (HTRF KinEASE-TK), FGFR2
# condition.set: Enz FGFR2 (nM)
Counter-ions that a name gives are not always drawn.
value.type: IC50 (nM)

Cc1ccnc(Sc2cc(-c3cnn(C4CCNCC4)c3)cn3ncc(C#N)c23)c1C [Example 72] | 3
Cc1c(-c2cc(Sc3ccccc3C#N)c3c(C#N)cnn3c2)cnn1[C@@H]1CCNC1 [Example 106] | 2
Cc1c(-c2cc(Sc3cccc4ncn(C)c34)c3c(C#N)cnn3c2)cnn1C1CCN(C)CC1 [Example 132] | 10

a: Cc1c(-c2cc(Sc3ncccc3F)c3c(C#N)cnn3c2)cnn1C1CCN(C)CC1 [Example 107]
b: Cc1ccc(F)c(Sc2cc(-c3cnn(C4CCNCC4)c3)cn3ncc(C#N)c23)n1 [Example 70, HCl]
c: N#Cc1ccccc1Sc1cc(-c2cnn(C3CCNCC3)c2)cn2ncc(C#N)c12 [Example 62]
d: Cc1c(-c2cc(Sc3ccccc3C#N)c3c(C#N)cnn3c2)cnn1[C@@H]1CCCNC1 [Example 112]
e: Cc1c(-c2cc(Sc3cccc4c3ncn4C)c3c(C#N)cnn3c2)cnn1C1CCN(C)CC1 [Example 131]
Incoming: Would you mind ranking these compounds by ascending IC50? Use the labels to give the ranking in the order requested.
Outgoing: c, a, d, b, e

I: Cc1nc(Sc2cc(-c3cnn(C4CCNCC4)c3C)cn3ncc(C#N)c23)ccc1Cl [Example 115]
II: Cc1c(-c2cc(Sc3ncccc3F)c3c(C#N)cnn3c2)cnn1[C@H]1CCCNC1 [Example 86]
Incoming: Kindly identify which of I and II has the larger recorded IC50 value. Bench note: the answer is the label of the chosen record.
Outgoing: II

1: N#Cc1cnn2cc(-c3cnn([C@H]4CCCNC4)c3)cc(Sc3ncccc3F)c12 [Example 63]
2: Cc1c(-c2cc(Sc3cccc(F)c3C#N)c3c(C#N)cnn3c2)cnn1C1CCNCC1 [Example 130]
3: Cc1ncccc1Sc1cc(-c2cnn([C@H]3CCCNC3)c2)cn2ncc(C#N)c12 [Example 81]
4: Cc1cc(Sc2cc(-c3cnn(C4CCNCC4)c3)cn3ncc(C#N)c23)n(C)n1 [Example 66, HCl]
Incoming: Would you mind ranking these compounds by ascending IC50? Use the labels to give the ranking in the order requested.
Outgoing: 1, 2, 4, 3

Data provenance is patent US20240270741A1.
